Below, each of the compounds is paired with its reported pIC50 value.
# Assayed System: human renin (Homo sapiens)
# Construct: purchased National Institute for Biological Standards, London
# Sequence (P00797 67-406): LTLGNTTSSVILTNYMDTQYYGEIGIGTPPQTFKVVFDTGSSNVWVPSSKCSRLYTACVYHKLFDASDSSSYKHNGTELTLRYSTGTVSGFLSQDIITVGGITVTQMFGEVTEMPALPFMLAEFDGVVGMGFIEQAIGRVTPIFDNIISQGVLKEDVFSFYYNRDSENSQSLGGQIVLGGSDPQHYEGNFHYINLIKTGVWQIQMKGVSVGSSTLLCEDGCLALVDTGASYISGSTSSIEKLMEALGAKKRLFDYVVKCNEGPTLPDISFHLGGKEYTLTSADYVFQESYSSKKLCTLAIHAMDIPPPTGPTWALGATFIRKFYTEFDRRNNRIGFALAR
# Method Notes: human renin inhibition test, in vitro (angiotensin I by radioimmunoassay)
# Format: biochemical
# Assay Context: pH 7.4, 37° C., two hours
Just the number, please; pIC50 means minus log10 of the concentration in mol/L.

Examples with answers:
COCCN(C)C(=O)O[C@@H](Cc1ccccc1)C(=O)NC[C@@H](C)C(=O)N[C@@H](CC1CCCCC1)[C@@H](O)[C@@H](O)CC(C)C    7.21
COCCN(C)C(=O)C[C@@H](CCc1ccccc1)C(=O)NC[C@@H](C)C(=O)N[C@@H](CC1CCCCC1)[C@@H](O)[C@@H](O)CC(C)C    7.35

Next, consider the following compound.
// `COCCN(C)C(=O)O[C@@H](Cc1ccccc1)C(=O)N[C@@H](CC(C)C)C(=O)N[C@@H](CC1CCCCC1)[C@@H](O)[C@@H](O)CC(C)C` : pIC50 value = 8.00

Each recorded value in this set is attributed to patent US5229420A.
